test: Oral bioavailability in Lewis rat at 5 mg/kg; format: ADME, organism-based; details: in vivo
REPORTED_PROPERTY: bioavailability

>  <ENTRY_SMILES>
O=C(NCc1cccnc1)c1cc(-n2cnn(Cc3ccc(F)cc3)c2=O)n[nH]1

>  <RESULT>
52%

$$$$

###

assay: Permeability from basolateral to apical side side in human Caco2 cells; details: Caco-2
REPORTED_PROPERTY: Papp B→A

>  <COMPOUND>
Cc1nc(-n2cnn(Cc3ccc(F)cc3)c2=O)sc1C(=O)NCc1nccs1

>  <RESULT>
20 ×10⁻⁶ cm/s

$$$$
>  <COMPOUND>
Cc1nc(-n2cnn(CC3CC3(F)F)c2=O)sc1C(=O)NCc1cccnc1 (stereo not given)

>  <RESULT>
33 ×10⁻⁶ cm/s

$$$$
>  <COMPOUND>
Cc1nc(-n2cnn(CCCC(F)(F)F)c2=O)sc1C(=O)NCc1cccnc1

>  <RESULT>
20 ×10⁻⁶ cm/s

$$$$
>  <COMPOUND>
Cc1nc(-n2cnn(C(C)c3ccc(F)cc3)c2=O)sc1C(=O)NCc1ccccn1 (stereo not given)

>  <RESULT>
25 ×10⁻⁶ cm/s

$$$$
>  <COMPOUND>
Cc1nc(-n2cnn(Cc3ccc(F)cc3)c2=O)sc1C(=O)NCc1ncco1

>  <RESULT>
23 ×10⁻⁶ cm/s

$$$$

###

assay: Metabolic stability in rat liver microsome assessed as compound remaining after 30 mins by LC/MS/MS analysis; conditions: liver microsomes
REPORTED_PROPERTY: remaining at 0.5 h (%)

>  <ENTRY_SMILES>
Cc1nc(-n2cnn(Cc3ccc(C(F)(F)F)cc3)c2=O)sc1C(=O)NCc1ccccn1

>  <RECORDED_NUMBER>
100

$$$$
>  <ENTRY_SMILES>
O=C(NCc1cccnc1)c1cc(-n2cnn(Cc3ccc(F)cc3)c2=O)n[nH]1

>  <RECORDED_NUMBER>
66

$$$$
>  <ENTRY_SMILES>
O=C(NCc1ccccn1)c1cc(-n2cnn(Cc3ccc(F)cc3)c2=O)n[nH]1

>  <RECORDED_NUMBER>
58

$$$$
>  <ENTRY_SMILES>
Cc1nc(-n2cnn(Cc3ccc(F)cc3)c2=O)sc1C(=O)NCc1cc[nH]n1

>  <RECORDED_NUMBER>
83

$$$$
>  <ENTRY_SMILES>
Cc1cnc(CNC(=O)c2sc(-n3cnn(Cc4ccc(F)cc4)c3=O)nc2C)cn1

>  <RECORDED_NUMBER>
75

$$$$
>  <ENTRY_SMILES>
Cc1nc(-n2cnn(Cc3ccc(F)cc3)c2=O)sc1C(=O)NCc1nccs1

>  <RECORDED_NUMBER>
71

$$$$
>  <ENTRY_SMILES>
Cc1nc(-n2cnn(Cc3ccc(F)cc3)c2=O)sc1C(=O)NCc1cccnc1

>  <RECORDED_NUMBER>
65

$$$$
>  <ENTRY_SMILES>
Cc1nc(-n2cnn(Cc3ccc(F)cc3)c2=O)sc1C(=O)NCc1ccccn1

>  <RECORDED_NUMBER>
68

$$$$
>  <ENTRY_SMILES>
Cc1nc(-n2cnn(Cc3ccc(F)cc3)c2=O)sc1C(=O)NCc1cn(C)cn1

>  <RECORDED_NUMBER>
96

$$$$
>  <ENTRY_SMILES>
Cc1nc(-n2cnn(CCOc3ccc(F)cc3)c2=O)sc1C(=O)NCc1cccnc1

>  <RECORDED_NUMBER>
22

$$$$
